These measurements were taken from ChEMBL document CHEMBL2021859.

Target: 5-hydroxytryptamine receptor 2A (Homo sapiens, UniProt P28223)
Sequence (P28223 whole entry): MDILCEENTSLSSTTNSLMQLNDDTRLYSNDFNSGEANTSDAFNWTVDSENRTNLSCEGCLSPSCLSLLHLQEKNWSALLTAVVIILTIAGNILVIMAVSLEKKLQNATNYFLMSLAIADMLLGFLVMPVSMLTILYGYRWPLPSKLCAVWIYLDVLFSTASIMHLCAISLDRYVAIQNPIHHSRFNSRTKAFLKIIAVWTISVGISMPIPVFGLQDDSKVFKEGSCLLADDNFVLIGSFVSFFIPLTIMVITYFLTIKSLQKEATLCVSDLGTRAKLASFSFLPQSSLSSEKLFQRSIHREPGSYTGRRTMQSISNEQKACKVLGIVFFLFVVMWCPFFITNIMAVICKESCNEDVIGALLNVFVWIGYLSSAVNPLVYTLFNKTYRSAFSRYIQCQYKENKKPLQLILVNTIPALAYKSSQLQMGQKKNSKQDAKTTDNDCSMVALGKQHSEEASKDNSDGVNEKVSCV
Experiment: Displacement of [3H]ketanserin from 5HT2A receptor expressed in HEK293 cells by liquid scintillation spectrophotometry
Format: cell-based
Conditions: read-out: Ki
Counter-ions that a name gives are not always drawn.
Consider the following compounds; for each one, report its log10(Ki).
Give log10 of Ki, with Ki taken in nM.

Known log10(Ki) results, listed for orientation:
| compound | experimental endpoint | endpoint value |
| --- | --- | --- |
| CCN(CC)CCOC(=O)[C@H](Cc1cccc2ccccc12)C[C@H]1CCCO1 | log10(Ki) | 3.32 |
| CCN(CC)CCOC(=O)[C@@H](Cc1cccc2ccccc12)C[C@H]1CCCO1 | log10(Ki) | 2.18 |
| CCN(CC)CCOC(=O)C(Cc1cccc2ccccc12)CC1CCCO1 (stereo not given) [NAFRONYL OXALATE] | log10(Ki) | 2.41 |
| CCN(CC)CCOC(=O)[C@H](Cc1cccc2ccccc12)C[C@@H]1CCCO1 | log10(Ki) | 2.99 |

Data request: Would you kindly share the measured log10(Ki) for CCN(CC)CCOC(=O)[C@@H](Cc1cccc2ccccc12)C[C@@H]1CCCO1 ?
Data returned: 2.18
